# Target Of Assay: von Hippel-Lindau disease tumor suppressor/Leucine-rich repeat serine/threonine-protein kinase 2 (Homo sapiens, UniProt P40337+Q5S007)
# Sequence (Q5S007 whole entry, one chain of several): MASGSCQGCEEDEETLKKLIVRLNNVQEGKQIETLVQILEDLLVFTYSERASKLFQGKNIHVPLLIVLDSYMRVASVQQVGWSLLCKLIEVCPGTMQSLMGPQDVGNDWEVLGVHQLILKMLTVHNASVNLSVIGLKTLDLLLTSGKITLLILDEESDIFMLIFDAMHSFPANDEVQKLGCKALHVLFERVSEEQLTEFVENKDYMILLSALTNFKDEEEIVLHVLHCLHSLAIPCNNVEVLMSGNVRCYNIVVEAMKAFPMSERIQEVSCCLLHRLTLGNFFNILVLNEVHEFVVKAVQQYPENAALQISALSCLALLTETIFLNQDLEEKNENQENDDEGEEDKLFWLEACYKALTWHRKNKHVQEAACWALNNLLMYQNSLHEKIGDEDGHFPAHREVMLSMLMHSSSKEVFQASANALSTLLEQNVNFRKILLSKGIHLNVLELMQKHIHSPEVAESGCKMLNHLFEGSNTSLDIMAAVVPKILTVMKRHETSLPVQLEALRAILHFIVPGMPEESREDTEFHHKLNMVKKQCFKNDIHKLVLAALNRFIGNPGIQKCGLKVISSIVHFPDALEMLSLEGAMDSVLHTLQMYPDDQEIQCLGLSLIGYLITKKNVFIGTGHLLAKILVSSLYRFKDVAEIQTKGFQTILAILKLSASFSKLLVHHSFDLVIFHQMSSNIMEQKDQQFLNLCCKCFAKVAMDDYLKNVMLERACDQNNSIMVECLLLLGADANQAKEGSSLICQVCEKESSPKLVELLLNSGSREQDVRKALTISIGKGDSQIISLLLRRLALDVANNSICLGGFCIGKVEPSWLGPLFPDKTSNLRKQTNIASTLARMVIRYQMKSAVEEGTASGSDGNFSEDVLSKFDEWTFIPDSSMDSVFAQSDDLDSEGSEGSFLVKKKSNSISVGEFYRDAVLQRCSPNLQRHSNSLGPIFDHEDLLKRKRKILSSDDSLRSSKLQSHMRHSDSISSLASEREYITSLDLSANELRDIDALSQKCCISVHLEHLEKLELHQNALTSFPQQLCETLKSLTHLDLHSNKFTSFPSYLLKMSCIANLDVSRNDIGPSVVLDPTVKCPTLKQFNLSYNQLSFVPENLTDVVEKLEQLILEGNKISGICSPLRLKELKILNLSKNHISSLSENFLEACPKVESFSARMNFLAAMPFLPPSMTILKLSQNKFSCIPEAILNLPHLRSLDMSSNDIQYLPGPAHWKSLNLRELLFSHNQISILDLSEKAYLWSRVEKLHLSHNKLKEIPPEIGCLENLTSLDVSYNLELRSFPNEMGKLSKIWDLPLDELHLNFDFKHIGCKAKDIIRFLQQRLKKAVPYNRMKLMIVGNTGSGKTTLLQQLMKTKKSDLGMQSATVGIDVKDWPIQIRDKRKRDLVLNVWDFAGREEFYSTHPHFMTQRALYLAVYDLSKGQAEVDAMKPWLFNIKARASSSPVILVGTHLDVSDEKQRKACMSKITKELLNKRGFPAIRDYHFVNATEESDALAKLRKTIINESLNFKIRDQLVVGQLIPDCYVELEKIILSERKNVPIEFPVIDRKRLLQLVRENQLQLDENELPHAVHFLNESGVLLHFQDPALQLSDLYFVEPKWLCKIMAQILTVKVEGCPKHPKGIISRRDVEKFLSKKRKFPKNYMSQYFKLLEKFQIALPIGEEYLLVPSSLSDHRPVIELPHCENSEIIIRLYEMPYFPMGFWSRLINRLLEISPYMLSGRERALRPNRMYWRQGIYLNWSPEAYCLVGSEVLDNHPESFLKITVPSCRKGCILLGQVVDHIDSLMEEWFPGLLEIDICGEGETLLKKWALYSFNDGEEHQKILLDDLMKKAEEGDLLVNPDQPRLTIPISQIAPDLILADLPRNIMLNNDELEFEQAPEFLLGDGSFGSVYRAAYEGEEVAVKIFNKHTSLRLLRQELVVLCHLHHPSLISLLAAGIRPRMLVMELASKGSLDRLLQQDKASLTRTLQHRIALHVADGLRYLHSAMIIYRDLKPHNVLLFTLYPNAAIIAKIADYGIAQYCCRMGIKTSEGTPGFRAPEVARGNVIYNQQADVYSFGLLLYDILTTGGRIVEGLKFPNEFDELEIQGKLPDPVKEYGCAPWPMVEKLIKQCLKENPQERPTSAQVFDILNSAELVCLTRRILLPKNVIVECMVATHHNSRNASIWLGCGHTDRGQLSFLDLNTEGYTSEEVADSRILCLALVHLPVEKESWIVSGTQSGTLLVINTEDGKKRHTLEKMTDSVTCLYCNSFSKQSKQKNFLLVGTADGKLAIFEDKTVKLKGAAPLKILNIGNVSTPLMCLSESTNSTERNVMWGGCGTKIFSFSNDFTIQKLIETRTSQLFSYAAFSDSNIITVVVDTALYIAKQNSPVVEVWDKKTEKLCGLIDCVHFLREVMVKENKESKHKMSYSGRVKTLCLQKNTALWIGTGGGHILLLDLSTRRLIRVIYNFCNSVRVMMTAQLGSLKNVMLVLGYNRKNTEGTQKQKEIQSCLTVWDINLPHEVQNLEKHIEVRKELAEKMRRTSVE
# Assay Method Text: PROTAC activity at VHL/LRRK2 in human MV4-11 cells assessed as induction of LRRK2 degradation by Western blot analysis
pEC50: −log10 of the molar value.

- Smi: "CNc1nc(Nc2ccc(C(=O)N3CCN(C[C@H]4CC[C@H](CSC(C)(C)[C@H](NC(=O)C5(F)CC5)C(=O)N5C[C@H](O)C[C@H]5C(=O)NCc5ccc(-c6scnc6C)cc5)CC4)CC3)cc2OC)ncc1Cl"
  pEC50: 7.82

====

# Target Of Assay: von Hippel-Lindau disease tumor suppressor/Cyclin-dependent kinase 6 (Homo sapiens, UniProt P40337+Q00534)
# Sequence (Q00534 whole entry): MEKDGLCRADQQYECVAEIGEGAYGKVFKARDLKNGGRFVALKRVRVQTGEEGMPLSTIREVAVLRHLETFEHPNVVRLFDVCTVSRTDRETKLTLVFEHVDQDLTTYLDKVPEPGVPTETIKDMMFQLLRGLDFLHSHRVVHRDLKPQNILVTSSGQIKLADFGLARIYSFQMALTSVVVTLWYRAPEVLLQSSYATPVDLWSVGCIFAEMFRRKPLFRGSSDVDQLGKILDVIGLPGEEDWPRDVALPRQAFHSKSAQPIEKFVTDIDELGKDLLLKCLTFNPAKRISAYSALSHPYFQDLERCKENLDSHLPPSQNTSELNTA
# Sequence (P40337 whole entry): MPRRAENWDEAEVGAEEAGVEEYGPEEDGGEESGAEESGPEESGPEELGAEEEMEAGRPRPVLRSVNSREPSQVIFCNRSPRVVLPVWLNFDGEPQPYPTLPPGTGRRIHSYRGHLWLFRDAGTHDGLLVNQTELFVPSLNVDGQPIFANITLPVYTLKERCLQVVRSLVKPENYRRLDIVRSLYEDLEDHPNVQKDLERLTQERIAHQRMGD
# Assay Method Text: PROTAC activity at VHL/CDK6 in human MV4-11 cells assessed as induction of CDK6 degradation by Western blot analysis
Readout Name: EC50

- Smi: "CC(=O)c1c(C)c2cnc(Nc3ccc(N4CCN(CCOCCOCCOc5cc(-c6scnc6C)ccc5CNC(=O)[C@@H]5C[C@@H](O)CN5C(=O)[C@@H](NC(=O)C5(F)CC5)C(C)(C)C)CC4)cn3)nc2n(C2CCCC2)c1=O"
  Test Value: "5.1 nM"

====

# Target Of Assay: von Hippel-Lindau disease tumor suppressor/Receptor-type tyrosine-protein kinase FLT3 (Homo sapiens, UniProt P36888+P40337)
# Sequence (P36888 whole entry): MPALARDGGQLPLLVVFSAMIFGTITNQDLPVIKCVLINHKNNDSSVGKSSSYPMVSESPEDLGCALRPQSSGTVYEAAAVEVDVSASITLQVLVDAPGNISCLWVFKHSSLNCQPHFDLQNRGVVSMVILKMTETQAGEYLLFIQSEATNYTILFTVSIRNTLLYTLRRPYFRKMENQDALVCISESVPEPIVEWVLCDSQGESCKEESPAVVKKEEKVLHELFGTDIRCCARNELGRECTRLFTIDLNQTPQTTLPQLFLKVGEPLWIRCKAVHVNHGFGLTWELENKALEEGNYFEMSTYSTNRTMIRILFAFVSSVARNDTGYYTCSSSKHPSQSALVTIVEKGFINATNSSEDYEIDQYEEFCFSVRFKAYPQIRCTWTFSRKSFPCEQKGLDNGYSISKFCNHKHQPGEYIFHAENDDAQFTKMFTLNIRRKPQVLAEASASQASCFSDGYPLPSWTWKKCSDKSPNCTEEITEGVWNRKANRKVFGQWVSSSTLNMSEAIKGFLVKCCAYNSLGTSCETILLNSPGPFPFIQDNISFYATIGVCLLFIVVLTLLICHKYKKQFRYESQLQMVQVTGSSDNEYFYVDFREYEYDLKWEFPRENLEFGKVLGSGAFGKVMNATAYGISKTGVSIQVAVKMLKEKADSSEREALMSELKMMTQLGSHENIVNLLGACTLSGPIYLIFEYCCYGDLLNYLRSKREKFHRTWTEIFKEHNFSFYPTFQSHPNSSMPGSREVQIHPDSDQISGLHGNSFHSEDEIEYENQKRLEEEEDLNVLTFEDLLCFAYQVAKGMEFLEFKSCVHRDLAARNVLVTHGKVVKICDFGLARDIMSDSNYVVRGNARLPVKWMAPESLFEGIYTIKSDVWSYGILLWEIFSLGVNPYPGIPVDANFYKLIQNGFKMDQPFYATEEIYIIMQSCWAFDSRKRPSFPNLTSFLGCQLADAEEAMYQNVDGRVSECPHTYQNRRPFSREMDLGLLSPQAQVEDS
# Sequence (P40337 whole entry): as the sequence (P40337 whole entry) above
# Assay Method Text: PROTAC activity at VHL/FLT3 in human MV4-11 cells assessed as induction of FLT3 degradation by Western blot analysis

- Smi: "Cc1ncsc1-c1ccc(CNC(=O)[C@@H]2C[C@@H](O)CN2C(=O)[C@@H](NC(=O)CCOCCOCCOc2ccc3c(c2)sc2nc(-c4ccc(NC(=O)Nc5cc(C(C)(C)C)on5)cc4)cn23)C(C)(C)C)cc1"
  EC50: "< 5 nM"
